Hi there, I'd appreciate the recorded displacement for every entry that follows.
- testTarget: Bcl-2-like protein 10 (Homo sapiens) (UniProt Q9HD36)
- protocolDescription: displacers of TR3 peptide from Bcl-B, primary screen, selectivity assay for Bfl-1 inhibitor project, biochemical, fluorescence polarization, FITC-TR3 peptide (AID 748);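 further: plate controls were wells without compound for no effect and wells lacking Bcl-B protein for full effect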
- testParameters: FP displacement of FITC-TR3 peptide from Bcl-B; at 20 µM; active compounds read high
About 100 (0.1%) of roughly 96,000 compounds were called active. Many of the other results were omitted from the sample, so actives are more common in it than they were. Measured potencies and affinities stand elsewhere.
Respond numerically; units are % and should not be typed.

Ask: Consider the molecule shown here: "COCCn1c(=S)[nH]c2cc(OC)c(OC)cc2c1=O" What is its recorded displacement?
Reply: 3

Ask: Consider the molecule shown here: "CCN1CCc2c(sc3c2c(NCc2ccco2)nc2nnnn23)C1" What is its recorded displacement?
Reply: 114

Ask: Consider the molecule shown here: O=C(O)C(Cc1ccccc1)N1C(=O)c2ccccc2C1=O (configuration not stated) What is its recorded displacement?
Reply: 9.7

Ask: Consider the molecule shown here: "CCOC(=O)c1nc2sc3c(c2c(=O)[nH]1)CCCC3" What is its recorded displacement?
Reply: -2.6

Ask: Consider the molecule shown here: O=C(O)C(Cc1ccccc1)n1cccc1 (configuration not stated) What is its recorded displacement?
Reply: 3.2

Ask: Consider the molecule shown here: "C/C(N)=C(/C#N)C(=O)CSc1nnc(Nc2cccc(C)c2C)s1" What is its recorded displacement?
Reply: -1.5

Ask: Consider the molecule shown here: "C=CCn1c(SCC(=O)NC2CCCC2)nc2scc(-c3ccco3)c2c1=O" What is its recorded displacement?
Reply: 29.6

Ask: Consider the molecule shown here: "O=C(c1ccc(N2CCNCC2)cc1)c1cccnc1" What is its recorded displacement?
Reply: -3.4

Ask: Consider the molecule shown here: "O=C(NCN1CCN(c2ccccc2F)CC1)c1cccnc1" What is its recorded displacement?
Reply: -3.4

Ask: Consider the molecule shown here: "CC(C)(C)NC(=O)c1sccc1C(=O)O" What is its recorded displacement?
Reply: -1.7

Ask: Consider the molecule shown here: CC(=O)N1CCn2c3c(c(=O)c4cc(C)ccc42)CCC31 (configuration not stated) What is its recorded displacement?
Reply: 4.4

Ask: Consider the molecule shown here: "CCCOc1cc(C)nc(-c2ccccc2O)n1" What is its recorded displacement?
Reply: -2.4

====

- testTarget: Bcl-2-like protein 10 (Homo sapiens) (UniProt Q9HD36)
- protocolDescription: displacers of TR3 peptide from Bcl-B, primary screen, selectivity assay for Bfl-1 inhibitor project, biochemical, fluorescence polarization, FITC-TR3 peptide (AID 748);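 further: plate controls were wells without compound for no effect and wells lacking Bcl-B protein for full effect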
- testParameters: FP displacement of FITC-TR3 peptide from Bcl-B; at 20 µM; active compounds read high
Among all 96,000 compounds or so, about 100 (0.1%) were called active. Shown is part of a subset that was picked to be rich in actives. Measured potencies and affinities stand elsewhere.
Hi there, I'd appreciate the recorded displacement for every entry that follows.
Respond numerically; units are % and should not be typed.

Ask: Consider the compound shown here: "O=C1c2sc3nc4ccccc4n3c2C(=O)N1c1ccccc1Cl" What is its recorded displacement?
Reply: 0.8

Ask: Consider the compound shown here: CCOC(=O)C1CCCN(C/C(O)=C(\C#N)c2nc(-c3ccc(Cl)cc3)cs2)C1 (configuration not stated) What is its recorded displacement?
Reply: 0

Ask: Consider the compound shown here: Cc1ccc2cc(C3C(C#N)=C(N)Oc4c3ccc3cccnc43)c(=O)[nH]c2c1 (configuration not stated) What is its recorded displacement?
Reply: 5.4

Ask: Consider the compound shown here: COc1cccc2c1C(=O)CC2NC(=O)C(F)(F)F (configuration not stated) What is its recorded displacement?
Reply: -17.1

Ask: Consider the compound shown here: Cc1nnc(NC(=O)NC(C)N2C(=O)C3C4C=CC(C4)C3C2=O)s1 (configuration not stated) What is its recorded displacement?
Reply: -30.5

Ask: Consider the compound shown here: "COc1cccc(NC(=O)c2cnsn2)c1" What is its recorded displacement?
Reply: 6.3

Ask: Consider the compound shown here: Cc1ccc2c(c1C)NC(C)CC2C (configuration not stated) What is its recorded displacement?
Reply: -4.5

Ask: Consider the compound shown here: "O=C1c2sc3nc4c(c(=O)n3c2C(=O)N1c1ccccc1)CCC4" What is its recorded displacement?
Reply: 7

Ask: Consider the compound shown here: Cc1cc2c(c(=O)n1CC1CCCO1)C(c1ccco1)C(C#N)=C(N)O2 (configuration not stated) What is its recorded displacement?
Reply: -1.3

Ask: Consider the compound shown here: "O=C(OC1CCCCC1)c1ccc(NC(=O)C2CCCCC2)cc1" What is its recorded displacement?
Reply: 6.4

Ask: Consider the compound shown here: "O=C(Nc1ccc(F)cc1F)c1cc2ncc(Br)cn2n1" What is its recorded displacement?
Reply: -2.9

Ask: Consider the compound shown here: "O=C(Nc1cccnc1)c1c(F)cccc1F" What is its recorded displacement?
Reply: 7.8

====

- testTarget: Bcl-2-like protein 10 (Homo sapiens) (UniProt Q9HD36)
- protocolDescription: displacers of TR3 peptide from Bcl-B, primary screen, selectivity assay for Bfl-1 inhibitor project, biochemical, fluorescence polarization, FITC-TR3 peptide (AID 748);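 further: plate controls were wells without compound for no effect and wells lacking Bcl-B protein for full effect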
- testParameters: FP displacement of FITC-TR3 peptide from Bcl-B; at 20 µM; active compounds read high
Among all 96,000 compounds or so, about 100 (0.1%) were called active. For the sample, actives were picked, then their nearest neighbours and some compounds at random. Measured potencies and affinities stand elsewhere.
readoutType: displacement (%)
Respond numerically; units are % and should not be typed.

Ask: Consider the compound shown here: "COC(=O)Cc1[nH]n(-c2nc3ccccc3s2)c(=O)c1C(C)=O" What is its recorded displacement?
Reply: -6.8

Ask: Consider the compound shown here: "O=[N+]([O-])c1ccc(Cl)c(-c2ccc(/C=N/c3c(-c4ccco4)nc4ccccn34)o2)c1" What is its recorded displacement?
Reply: 31.7

Ask: Consider the compound shown here: CCOc1ccc(N2C(=O)CC(N3CCN(C4CCc5ccccc5C4)CC3)C2=O)cc1 (stereo unspecified) What is its recorded displacement?
Reply: 5.4

Ask: Consider the compound shown here: "Cc1ccc(CNC(=O)CCn2nc(-c3ccc(Cl)cc3)ccc2=O)cc1" What is its recorded displacement?
Reply: -8.8

Ask: Consider the compound shown here: "O=C(OCC(=O)N1CCN(C(=O)c2ccco2)CC1)c1cc(-c2ccccc2)nc2ccccc12" What is its recorded displacement?
Reply: -78.6

Ask: Consider the compound shown here: "Cn1c(=O)c2nnn(/N=C(\c3ccccc3)C3CC3)c2n(C)c1=O" What is its recorded displacement?
Reply: 0.7

Ask: Consider the compound shown here: "CCCN=C(C)c1c(-c2ccccc2)[nH]n(-c2nc3ccccc3s2)c1=O" What is its recorded displacement?
Reply: -6.3

Ask: Consider the compound shown here: "COc1ccc(Cn2c(C)ccc2C)cc1" What is its recorded displacement?
Reply: -31.6

Ask: Consider the compound shown here: "Cc1ccc(NC(=O)c2noc3c2CCCCC3)cc1" What is its recorded displacement?
Reply: -10.5

Ask: Consider the compound shown here: "O=C(O)c1cn[nH]c1-n1cnnn1" What is its recorded displacement?
Reply: 0.2

Ask: Consider the compound shown here: "N#CCCN1CCN(CCC#N)CC1" What is its recorded displacement?
Reply: -1.9

Ask: Consider the compound shown here: CCOC(=O)c1[nH]c(C)c(/C(O)=C2\C(=O)C(=O)N(CCCN3CCOCC3)C2c2cccnc2)c1C (stereo unspecified) What is its recorded displacement?
Reply: 5

Ask: Consider the compound shown here: "Cc1cc(C)n(C(=O)CCN2C(=O)c3ccccc3C2=O)n1" What is its recorded displacement?
Reply: -3.1

Ask: Consider the compound shown here: COCC(C)n1c(C)cc(C(=O)COC(=O)c2nc3nc(C)cc(C)n3n2)c1C (stereo unspecified) What is its recorded displacement?
Reply: 9.9

Ask: Consider the compound shown here: "O=C1C(C=Nc2ccccc2O)=C(O)c2ccccc21" What is its recorded displacement?
Reply: -6.7

Ask: Consider the compound shown here: "Cc1ccc2c(Cl)cc(Cl)c(OCC(=O)NCc3ccco3)c2n1" What is its recorded displacement?
Reply: 56.5

Ask: Consider the compound shown here: "CCc1ccc(NC(=O)c2noc3c2CCCCC3)cc1" What is its recorded displacement?
Reply: -3

Ask: Consider the compound shown here: "CCOC(=O)c1cnc(-n2nc(C)cc2C)nc1Nc1ccc(OC)cc1" What is its recorded displacement?
Reply: 0.6

Ask: Consider the compound shown here: "Cc1cc(Cl)cc(Cl)c1OCC(=O)NCc1ccco1" What is its recorded displacement?
Reply: -20.9

Ask: Consider the compound shown here: "Cc1cc(C)nc(Nc2ccc(N3CCOCC3)cc2)n1" What is its recorded displacement?
Reply: 37.9

Ask: Consider the compound shown here: "Cc1nnc(SCC(=O)Nc2cccc(C(F)(F)F)c2)n1Cc1ccco1" What is its recorded displacement?
Reply: 4.7

Ask: Consider the compound shown here: "O=C(Nc1ccc(-c2nnc(-c3ccco3)o2)cc1)C(c1ccccc1)c1ccccc1" What is its recorded displacement?
Reply: 3.9

Ask: Consider the compound shown here: "CCOc1ccc(C(c2c(C)[nH][nH]c2=O)c2c(C)[nH][nH]c2=O)cc1OC" What is its recorded displacement?
Reply: 8.5

Ask: Consider the compound shown here: "Cc1cc(C)n(Cc2ccc(C(=O)O)cc2)n1" What is its recorded displacement?
Reply: -12.7

Ask: Consider the compound shown here: "CCCn1c(CCC(=O)O)ccc1-c1cccs1" What is its recorded displacement?
Reply: 2.8

Ask: Consider the compound shown here: "CCn1c(SCC(=O)Nc2ccc(NC(C)=O)cc2)nnc1C1CC1" What is its recorded displacement?
Reply: -2.2

Ask: Consider the compound shown here: NC(=O)C1c2ccccc2CSc2ccccc21 (stereo unspecified) What is its recorded displacement?
Reply: -22.4

Ask: Consider the compound shown here: "CCCc1nnc(NC(=O)CCC(=O)N2CCN(CCOc3ccc(C)cc3)CC2)s1" What is its recorded displacement?
Reply: 1.6

Ask: Consider the compound shown here: "O=c1c(-c2ccccc2)coc2c(CN3CCCC3)c(O)ccc12" What is its recorded displacement?
Reply: 0.4

Ask: Consider the compound shown here: "Cc1ccc(C=C2C(=O)c3ccccc3C2=O)s1" What is its recorded displacement?
Reply: 4.7

Ask: Consider the compound shown here: CCn1c(SC)nc2c(c1=O)SC(C)C2 (stereo unspecified) What is its recorded displacement?
Reply: -13.3

Ask: Consider the compound shown here: "O=[N+]([O-])c1ccc(-c2ccc(/C=N/c3c(-c4ccco4)nc4ccccn34)o2)cc1" What is its recorded displacement?
Reply: 7.3

Ask: Consider the compound shown here: "CCCCn1c(CCC(=O)O)ccc1-c1cccs1" What is its recorded displacement?
Reply: 4.3

Ask: Consider the compound shown here: "Cn1c(=O)[nH]c(=O)c2c1nc(Br)n2Cc1ccccc1Cl" What is its recorded displacement?
Reply: -0.4

Ask: Consider the compound shown here: "CC(=O)c1ccc(NC(=O)c2noc3c2CCCCC3)cc1" What is its recorded displacement?
Reply: -0.9

Ask: Consider the compound shown here: O=C(CN1C(=O)NC2(CCc3ccccc32)C1=O)c1ccc2c(c1)OCCO2 (stereo unspecified) What is its recorded displacement?
Reply: -13.7

Ask: Consider the compound shown here: "Cn1c2ccccc2c2c(C(=O)NCc3ccco3)cn(C3CCCCC3)c(=O)c21" What is its recorded displacement?
Reply: 11.7

Ask: Consider the compound shown here: "CN(C)S(=O)(=O)c1ccc(C(=O)Nc2nnc(Cc3ccccc3)s2)cc1" What is its recorded displacement?
Reply: -6.2

Ask: Consider the compound shown here: "O=C(NCCN1CCCCCC1)c1ccc(CS(=O)(=O)c2ccc(Br)cc2)o1" What is its recorded displacement?
Reply: 4.3

Ask: Consider the compound shown here: "O=C(COC(=O)c1cc(-c2ccco2)nc2ccccc12)NCc1ccccc1" What is its recorded displacement?
Reply: -3

Ask: Consider the compound shown here: "CCNC(=O)CN1c2cccc3cccc(c23)S1(=O)=O" What is its recorded displacement?
Reply: -6.3

Ask: Consider the compound shown here: "CN=CC1=C(O)c2ccccc2C1=O" What is its recorded displacement?
Reply: -13.3

Ask: Consider the compound shown here: "CCCN(CCC)C(=O)Cn1c(=O)n(CCC(=O)NCCc2ccccc2)c(=O)c2ccccc21" What is its recorded displacement?
Reply: 1.2

Ask: Consider the compound shown here: "Cc1cc(C)nc(Nc2ccc(C(=O)O)cc2)n1" What is its recorded displacement?
Reply: 1.7

Ask: Consider the compound shown here: "CC(C)CC(=O)c1c[nH]c(C(=O)NCCCn2ccnc2)c1" What is its recorded displacement?
Reply: 0

Ask: Consider the compound shown here: "COc1ccc(CNC(=O)c2noc3c2CCCC3)cc1" What is its recorded displacement?
Reply: -8.9
